TARGET_ENTITY: T1, human CD1d expressed on HEK-293 cells (human, UniProt P15813 20-335; P61769 21-119)
T1 construct: also called HEK - CD1d
PROTOCOL_NOTES: flow cytometry, HEK-293 cells, 0.1 µg/ml antibody
Assign Fluorescence Intensity Geomean (normalized to background) to each entry below.
One number for each entry, in fold over background.

# count of solved cases: 2
| BINDER | UNIT_OF_MEASURE | REPORTED_RESULT |
| --- | --- | --- |
| 116 (VR12117) (antibody, V domains shown, also called OX116) VH: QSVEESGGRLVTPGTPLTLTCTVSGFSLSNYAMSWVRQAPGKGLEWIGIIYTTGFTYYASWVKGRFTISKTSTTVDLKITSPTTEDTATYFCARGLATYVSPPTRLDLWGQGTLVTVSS VL: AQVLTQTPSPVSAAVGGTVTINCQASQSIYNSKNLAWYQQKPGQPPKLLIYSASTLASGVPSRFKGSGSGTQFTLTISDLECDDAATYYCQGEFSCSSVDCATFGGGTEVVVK | fold over background | 1.1 |
| 110 (VR12112) (antibody, V domains shown, also called OX110; antibody 110) VH: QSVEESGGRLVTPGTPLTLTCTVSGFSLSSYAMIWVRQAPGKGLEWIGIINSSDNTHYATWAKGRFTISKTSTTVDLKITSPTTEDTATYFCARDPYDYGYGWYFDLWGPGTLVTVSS VL: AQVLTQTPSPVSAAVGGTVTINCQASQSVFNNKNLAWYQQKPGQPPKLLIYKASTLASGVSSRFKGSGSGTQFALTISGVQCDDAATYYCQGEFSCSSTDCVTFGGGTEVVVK | fold over background | 1 |

# input for lookup
Return reported Fluorescence Intensity Geomean (normalized to background). Input binder: 111 (VR12113) (antibody, V domains shown, also called OX111) VH: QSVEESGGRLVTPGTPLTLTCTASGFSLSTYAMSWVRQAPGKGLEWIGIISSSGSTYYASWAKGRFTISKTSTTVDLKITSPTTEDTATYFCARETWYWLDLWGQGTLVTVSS VL: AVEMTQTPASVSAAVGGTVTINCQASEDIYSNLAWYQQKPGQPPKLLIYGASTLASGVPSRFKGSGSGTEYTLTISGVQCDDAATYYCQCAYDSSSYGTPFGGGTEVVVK
1

Source: patent US20250289893A1
